- measurementTarget: EcoLRS (leucyl-tRNA synthetase from Escherichia coli) (Escherichia coli)
- Construct: made in house; host or cells: Escherichia coli M15
- Sequence (P07813 whole entry): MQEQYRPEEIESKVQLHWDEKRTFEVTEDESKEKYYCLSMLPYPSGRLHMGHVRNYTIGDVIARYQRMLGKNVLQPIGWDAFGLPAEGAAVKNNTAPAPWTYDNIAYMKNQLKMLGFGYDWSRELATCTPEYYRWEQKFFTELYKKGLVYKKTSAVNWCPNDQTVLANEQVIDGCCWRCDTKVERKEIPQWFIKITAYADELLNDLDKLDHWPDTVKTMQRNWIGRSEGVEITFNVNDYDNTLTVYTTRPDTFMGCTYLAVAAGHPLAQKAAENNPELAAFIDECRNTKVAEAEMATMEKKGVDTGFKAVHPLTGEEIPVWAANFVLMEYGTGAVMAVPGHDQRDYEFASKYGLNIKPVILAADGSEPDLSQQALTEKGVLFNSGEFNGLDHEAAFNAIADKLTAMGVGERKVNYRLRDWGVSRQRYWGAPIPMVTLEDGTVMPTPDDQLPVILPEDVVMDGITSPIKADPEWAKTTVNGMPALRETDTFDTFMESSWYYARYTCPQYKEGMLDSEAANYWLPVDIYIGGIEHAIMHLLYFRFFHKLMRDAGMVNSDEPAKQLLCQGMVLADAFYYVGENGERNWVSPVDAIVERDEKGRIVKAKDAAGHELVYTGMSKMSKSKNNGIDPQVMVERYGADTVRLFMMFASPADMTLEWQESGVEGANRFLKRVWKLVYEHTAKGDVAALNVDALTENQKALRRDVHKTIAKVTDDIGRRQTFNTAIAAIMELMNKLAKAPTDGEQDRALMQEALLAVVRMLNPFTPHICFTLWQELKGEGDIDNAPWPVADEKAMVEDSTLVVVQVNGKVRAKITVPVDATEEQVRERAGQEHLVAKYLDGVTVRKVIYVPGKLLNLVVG
- assayExplanation: aaRS aminoacylation assay (ATP consumption), EcoLRS
- Type: biochemical
pIC50: −log10 of the molar value. Counter-ions that a name gives are not always drawn.

compound: CC[C@H](C)[C@H](N)C(=O)NS(=O)(=O)c1cccc(-c2cc(C)nc(N)n2)c1 [Compound 5.40]
pIC50: 4.66
--
compound: CC(C)C[C@H](N)C(=O)NS(=O)(=O)c1cccc2ccccc12 [Compound 5.13]
pIC50: 7.23
--
compound: Cc1cc(-c2cccc(S(=O)(=O)NC(=O)[C@@H](N)CC3CCC3)c2)nc(N)n1 [Compound 5.31]
pIC50: 5.21
--
compound: CSc1cc(-c2cccc(S(=O)(=O)NC(=O)[C@@H](N)CC(C)C)c2)nc(N)n1 [Compound 5.29]
pIC50: 7.68
--
compound: CC(C)C[C@H](N)C(=O)NS(=O)(=O)c1cccc2c(N(C)C)cccc12 [Compound 5.16, hydrochloride]
pIC50: 5.39
--
compound: COc1ccc2cc(S(=O)(=O)NC(=O)[C@@H](N)CC(C)C)ccc2c1 [Compound 5.17]
pIC50: 6.04
--
compound: Cc1cc(-c2cccc(S(=O)(=O)NC(=O)[C@@H](N)CC(C)C)c2)ncn1 [Compound 5.39]
pIC50: 7.35
--
compound: CC(C)C[C@H](N)C(=O)NS(=O)(=O)c1cccc(-c2ccnc(N)c2)c1 [Compound 5.43]
pIC50: 8.70

---

- measurementTarget: SauLRS (leucyl-tRNA synthetase from Staphylococcus aureus) (Staphylococcus aureus, UniProt Q2FXH2)
- Construct: made in house; host or cells: Escherichia coli M15
- Sequence (Q2FXH2 1-805): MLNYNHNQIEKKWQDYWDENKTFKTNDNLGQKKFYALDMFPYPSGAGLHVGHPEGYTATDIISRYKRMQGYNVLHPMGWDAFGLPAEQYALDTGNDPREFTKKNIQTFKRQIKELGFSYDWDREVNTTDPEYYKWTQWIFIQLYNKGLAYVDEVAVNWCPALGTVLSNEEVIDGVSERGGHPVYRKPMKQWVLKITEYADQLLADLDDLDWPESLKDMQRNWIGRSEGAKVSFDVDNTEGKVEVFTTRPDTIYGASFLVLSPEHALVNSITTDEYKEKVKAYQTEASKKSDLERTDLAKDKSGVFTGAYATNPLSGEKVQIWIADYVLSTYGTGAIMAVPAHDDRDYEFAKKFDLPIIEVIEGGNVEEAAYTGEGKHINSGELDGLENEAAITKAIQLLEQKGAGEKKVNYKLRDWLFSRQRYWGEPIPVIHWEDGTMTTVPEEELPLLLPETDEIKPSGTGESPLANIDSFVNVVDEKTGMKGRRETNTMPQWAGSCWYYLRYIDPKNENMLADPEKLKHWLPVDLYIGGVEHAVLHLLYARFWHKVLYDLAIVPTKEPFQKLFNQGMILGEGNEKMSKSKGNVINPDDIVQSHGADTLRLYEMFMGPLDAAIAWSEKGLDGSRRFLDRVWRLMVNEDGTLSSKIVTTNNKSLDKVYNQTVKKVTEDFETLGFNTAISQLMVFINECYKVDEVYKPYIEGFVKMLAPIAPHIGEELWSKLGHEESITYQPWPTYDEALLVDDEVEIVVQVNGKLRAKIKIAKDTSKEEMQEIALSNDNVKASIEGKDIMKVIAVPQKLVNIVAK
- assayExplanation: aaRS aminoacylation assay (ATP consumption), SauLRS
- Assay type: biochemical

structureAsSmiles: CC(C)C[C@H](N)C(=O)NS(=O)(=O)c1cccc(-c2ccncc2)c1
IC50 [nM]: 810
